# assay.notes: recombinant UMI read abundance after kanamycin selection (control-corrected) (log10(CPM+1)); higher = more efficient recombination; extreme values may be limits of the assay; sequences stand for … in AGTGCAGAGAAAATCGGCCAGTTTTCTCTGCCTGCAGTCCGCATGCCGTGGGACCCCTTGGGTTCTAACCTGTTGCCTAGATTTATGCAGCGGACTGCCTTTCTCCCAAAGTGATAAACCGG…AGGTTGGTTTCACT; site = the 11-nt donor
quantity.kind: recombinant UMI read abundance (log10)
API doc: respond with a numeric literal and nothing else, no unit.

[[record]]
input_sequence = "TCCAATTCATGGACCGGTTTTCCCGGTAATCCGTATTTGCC (site TCCATTTCTGG)"
quantity_kind = "recombinant UMI read abundance (log10)"
measured_result = 0

[[record]]
input_sequence = "CCTTTTACATGGACCGGTTTTCCCGGTAATCCGTATTTGCT (site CCCTTTACTAG)"
quantity_kind = "recombinant UMI read abundance (log10)"
measured_result = 0


Next sequence, please.
Report recombinant UMI read abundance (log10) for TGTCCAACATGGACCGGTTTTCCCGGTAATCCGTATTTGTA (site AGTCCAACTTA) please.
0.0568

###

Some sequences, each annotated with its measured recombinant barcode read abundance (log10).
# assay.notes: recombinant barcode read abundance after kanamycin selection (control-corrected) (log10(CPM+1)); higher = more efficient recombination; sequences stand for … in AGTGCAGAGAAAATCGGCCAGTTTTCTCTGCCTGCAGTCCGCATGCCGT…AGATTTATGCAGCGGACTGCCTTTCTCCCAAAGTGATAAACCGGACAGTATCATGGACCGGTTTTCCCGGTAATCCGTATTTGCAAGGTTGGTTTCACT; site = the 11-nt target
Returns: the value as a bare number; no unit string appended.

// below: answered sequences
[[record]]
input_sequence = "AATTCGACTTGGGTTCTAACCTGTTGCCT (site AGTTCGACTAG)"
measured_result = 0.222

[[record]]
input_sequence = "GAGCTGCCTTGGGTTCTAACCTGTTGCCA (site AGCTAATCTAA)"
measured_result = 0.274

[[record]]
input_sequence = "CCGGTGACTTGGGTTCTAACCTGTTGCCT (site TCGGTGACTAG)"
measured_result = 0.0596


What value of recombinant barcode read abundance (log10) has been reported for the following sequence? CTTCGGGCTTGGGTTCTAACCTGTTGCAT (site CTTTGAGCTAT)
0.242

Reported recombinant barcode read abundance (log10) for CCTGATTCTTGGGTTCTAACCTGTTGCCT (site CCTGAGTCTAG) : what is it?
0.107

###

# assay.notes: recombinant barcode read abundance after kanamycin selection (control-corrected) (log10(CPM+1)); higher = more efficient recombination; sequences stand for … in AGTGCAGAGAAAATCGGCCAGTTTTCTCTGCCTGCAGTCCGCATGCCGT…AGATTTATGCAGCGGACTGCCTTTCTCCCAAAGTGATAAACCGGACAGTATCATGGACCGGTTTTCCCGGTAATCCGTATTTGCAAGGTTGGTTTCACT; site = the 11-nt target
Overview of recorded recombinant barcode read abundance (log10) for various sequences
Respond numerically, and do not add a unit to the figure.

[[record]]
input_sequence = "TACGCGGCTTGGGTTCTAACCTGTTGCCT (site TACGTGGCTAG)"
measured_result = 0.192


Sample TACCTTACTTGGGTTCTAACCTGTTGCAG (site AGAAGATCTAG) — what was its recombinant barcode read abundance (log10)?
0.17

// recombinant barcode read abundance (log10) lookup, key: GCAAAGCCTTGGGTTCTAACCTGTTGCCT (site GCAAAGCCTAG)
1.18
